- System: MCF7
- TEST_PROTOCOL: Antiproliferative activity against human MCF7 cells after 72 hrs by MTT assay
- Format: functional, cell-based
- STATED_CONDITIONS: MCF7, 72 h
pIC50: −log10 of the molar value.
I'd appreciate it if you could supply pIC50 values for the items below.

{"columns": ["COMPOUND", "pIC50"],
 "data": [
  ["CCOC(=O)c1c(O)c(NC(=O)OC(C)(C)C)cc2c1[nH]c1ccccc12", "< 4.30"],
  ["CCOC(=O)Nc1cc2c([nH]c3ccccc32)c(C(=O)OCC)c1O", "< 4.30"],
  ["CCOC(=O)c1c(O)c(NC(=O)c2ccc(C)o2)cc2c1[nH]c1ccccc12", "< 4.30"],
  ["CCOC(=O)c1c(OC(=O)c2ccc(C)o2)c(NC(=O)c2ccc(C)o2)cc2c1[nH]c1ccc(NC(=O)c3ccc(C)o3)cc12", "< 4.30"]
]}

Any idea what its pIC50 is? The compound is O=c1[nH]cc(F)c(=O)[nH]1 [FLUOROURACIL]
5.08
